Target: cholera toxin B subunit (CTB); ligand LOSGM1 (Vibrio cholerae serotype O1, UniProt P01556)
Sequence (P01556 22-124 limits assumed): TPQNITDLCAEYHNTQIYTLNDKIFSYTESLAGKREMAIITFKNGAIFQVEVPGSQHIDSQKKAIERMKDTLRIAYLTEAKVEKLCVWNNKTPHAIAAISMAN
Assay type: binding
Where a SMILES comes first, the peptide text is derived from it.
RECORDED_ENDPOINT: Inhibition percent at IC50 GM1: LOSGM1 (%)

COMPOUND: CSCC[C@H](NC(=O)[C@H](CO)NC(=O)[C@@H]1CCCN1C(=O)[C@H](Cc1ccccc1)NC(=O)[C@H](Cc1c[nH]c2ccccc12)NC(=O)[C@H](CCCCN)NC(=O)[C@H](Cc1c[nH]cn1)NC(=O)[C@H](Cc1ccccc1)NC(=O)[C@@H]1CCCN1C(=O)[C@H](CO)NC(=O)[C@@H](N)Cc1ccc(O)cc1)C(=O)N[C@@H](Cc1c[nH]cn1)C(=O)O [PGM1-2, YSPFHKWFPSMH] (H-YSPFHKWFPSMH-OH; N-terminus and C-terminus assumed)
RECORDED_ENDPOINT: Inhibition percent at IC50 GM1: LOSGM1
UNITS: %
TEST_VALUE: 47.9

Origin of measurements: patent US8877161B2
